# test details: Emulsification index E24
# Format: physicochemical
# condition context: surfactant solution 100 mg/liter; 2 ml hexadecane to 4 ml aqueous sample; measured 24 h later
property name: E24 index
Just so you know, I need the unit written after the number.

Reported E24 index, compound CC(O)C(CCCCCCCCCCCCCCCCC(O)C(C)NCC(=O)O)OC1OC(CO)C(O)C(O)C1O (stereo not drawn) [C] : ____
100%

If you can, please state the reported E24 index value of CC(O)C(O)CCCCCCCCCCCCCCCCC(OC1OC(CO)C(O)C(O)C1O)C(C)O (stereo not drawn) [F] .
100%

Recorded E24 index of CC(O)C(CCCCCCCCCCCCCCCCC(O)C(C)OC1OC(CO)C(O)C(O)C1O)OC1OC(CO)C(O)C(O)C1O (stereo not drawn) [D] , please.
90%

// E24 index lookup, key: CC(N)C(O)CCCCCCCCCCCCCCCCC(OC1OC(CO)C(O)C(O)C1O)C(C)O (stereo not drawn) [B]
99%

Entry CC(O)C(CCCCCCCCCCCCCCCCC(O)C(C)NC=O)OC1OC(CO)C(O)C(O)C1O (stereo not drawn) [Compound E] : reported E24 index = ?
65%

Which E24 index is reported for this compound? CC(N)C(O)C(O)CCCCCCCCCCCCCCCC(OC1OC(CO)C(O)C(O)C1O)C(C)O (stereo not drawn) [Compound I]
95%

What E24 index value was documented for this compound, CC(N)C(O)/C=C/CCCCCCCCCCCCCCC(OC1OC(CO)C(O)C(O)C1O)C(C)O (stereo not drawn) [J] ?
96%

Quick check: E24 index of CC(O)C(CCCCCCCCCCCCCCCCC(O)C(C)NC(=O)CCC(=O)O)OC1OC(CO)C(O)C(O)C1O (stereo not drawn) [H] ?
94%

Which E24 index is listed for CC(N)C(O)CCCCCCCCCCCCCCC(OC1OC(CO)C(O)C(O)C1O)C(C)O (stereo not drawn) [Compound A] ?
95%
